- system_name: HLA-A*02:01
- method_description: IEDB peptide-MHC binding, purified MHC/competitive/fluorescence; filed as Kd, often an IC50 or EC50 that approximates it; bounds were set here for any values at or beyond the usual limits of such assays
- experimental_conditions: source organism: human gammaherpesvirus 4
attribute_measured: pKd
pKd is a log-scale quantity: -log10 of the concentration expressed in molar.

Problem: # returns recorded pKd (system: HLA-A*02:01) for FTASVSTVV
Solution: 8.57

###

- system_name: HLA-A*31:01
- method_description: IEDB peptide-MHC binding, purified MHC/competitive/radioactivity; filed as Kd, often an IC50 or EC50 that approximates it; bounds were set here for any values at or beyond the usual limits of such assays
- experimental_conditions: source organism: Dengue virus 4 Dominica/814669/1981
attribute_measured: Kd (µM)
Quick note: give the figure in µM, leave out the unit.

Problem: // lookup Kd | system=HLA-A*31:01 | key= MTLMKGASR
Solution: 0.0305
